Values were extracted from the supplement of paper PMC10567573.

B1: DLC1 (parent)
chain: HVTHWMGQPFNSDDRNTACHHGLV

Variants of: B1
measurement-notes: protein stability index of a GFP-peptide fusion (GPS, HEK-293T) (PSI 1-6); higher = more stable;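 also: lentivirally expressed fusions sorted by FACS into six bins by GFP to DsRed ratio, PSI derived from sequencing read proportions per bin multiplied by bin number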
recorded-conditions: c terminus: a fixed tail appended
Rule: protein stability index under 2 gives FALSE, otherwise TRUE.

Given the entry "A18W" , answer whether its protein stability index meets or surpasses 2.
FALSE

How about "V24I" ?
TRUE

Now consider "H4Q" .
FALSE

Also "D14F" , if possible.
TRUE

Now the variant "V24T"
TRUE

Another variant to look at: "A18Q"
TRUE

Proceed to "T17S"
TRUE

// repeat for "P9R" and report
TRUE
